Measured log10 TGI, listed per entry for reference.
# Tested on: EKVX NSCLC
# protocol-description: NCI tumour cell line growth inhibition, 48 h
Recorded TGI (log10, µM)

Some molecules with known log10 TGI results, for comparison:
molecule: Fc1ccc(Nc2nc(Nc3ccc(-c4nc5ccccc5[nH]4)cc3)c3cn[nH]c3n2)cc1
observed-result: 0.92
//
molecule: CN(C)c1ccc2[nH]c3c(C(N)=O)cc(=O)c(=O)c=3oc2c1
observed-result: 1.79
//
molecule: CCCCCCCCN=C(NCCCCCCCC)SCc1cccc2ccccc12
observed-result: 0.54

Please give the measured log10 TGI for this molecule: COc1ccc2c(c1)/c(=C/C#N)c1c3ccccc3[n+](C)n21
1.22

Please give the measured log10 TGI for this molecule: O=S(=O)(/N=C(\NO)Nc1ccc(Cl)cc1)c1cc2ccccc2s1
1.41

Please give the measured log10 TGI for this molecule: CCN(C(=O)N[C@H](C(=O)N[C@@H](CSC)C(=O)N[C@@H](C)C(=O)OC)C(C)C)c1ccccc1
1.46

Please give the measured log10 TGI for this molecule: COc1cccc(CCNc2c(C#N)c3n(c4ccccc4[n+]3C)c3ncccc23)c1
1.56

Please give the measured log10 TGI for this molecule: COc1cc(C(=O)O[C@H](C(=O)NCCCCNC(=O)[C@@H](OC(=O)c2cc(OC)cc3c(C)cccc23)[C@]2(C)CO2)[C@]2(C)CO2)c2cccc(C)c2c1
0.41

Please give the measured log10 TGI for this molecule: CC(=O)c1c(C)c2cnc(Nc3ccc(N4CCNCC4)cn3)nc2n(C2CCCC2)c1=O
1.42

Please give the measured log10 TGI for this molecule: Cc1cc(O)c2c(c1)C(C1c3cccc(O)c3C(=O)c3c(O)cc(C)cc31)c1cccc(O)c1C2=O (stereo not drawn)
0.62

Please give the measured log10 TGI for this molecule: CC(=O)Nc1ccc(/C=c2\sc3nnc(-c4cccnc4)n3c2=O)cc1
1.74

Please give the measured log10 TGI for this molecule: C(=N\NC1=NCCN1)/c1ccc2ccccc2c1
1.71

Please give the measured log10 TGI for this molecule: CCOCCOCCOCCOCCOCCOCCOCCOCCOCCO (tested in a mixture with another compound)
0.98

---

# Test system: MOLT-4 leukemia
# protocol-description: NCI tumour cell line growth inhibition, 48 h
endpoint-label: TGI

Some compounds with known TGI results, for comparison:
compound: CSc1ccc(C(=O)/C=C/c2ccc(Cl)cc2Cl)cc1
TGI: 33.9 µM
//
compound: CN(C)N=Nc1ccc(S(N)(=O)=O)cc1
TGI: > 100 µM
//
compound: CN(C)c1ccc2[nH]c3c(C(N)=O)cc(=O)c(=O)c=3oc2c1
TGI: 8.53 µM
//
compound: COc1cc(O)c(C(=O)/C=C/c2ccc(OC)c(OCc3ccccc3)c2)c(OC)c1
TGI: > 100 µM
//
compound: Cc1cc(C)c2c(n1)S(=O)(=O)N(CCCN1CCN(c3cccc(Cl)c3)CC1)/C(=C(\O)c1ccc(Br)cc1)C2=O
TGI: 60.2 µM
//
compound: C=CCOC(=O)Cn1ccc(=O)[nH]c1=O
TGI: > 100 µM
//
compound: O=C1CN(c2cccc(C(F)(F)F)c2)C(=O)CN1CCN1CC(=O)N(c2cccc(C(F)(F)F)c2)CC1=O
TGI: > 100 µM
//
compound: CN(C)CC1CCC/C(=C\c2ccc(OC(=O)/C=C/c3ccc(Cl)cc3)cc2)C1=O (centres undefined)
TGI: 2.86 µM
//
compound: O=C(C(=CN1CCN(C(=O)c2ccco2)C1=S)C(=O)c1ccccc1)c1ccccc1
TGI: > 50 µM
//
compound: CCCN(CCC)C(=O)c1c(N2CCN(C)CC2)c2cccnc2n2c(C)cnc12
TGI: > 100 µM

Please give the measured TGI for this compound: CC1=C[C@@H]2c3c(c(O)c(O)c4oc5cc(O)cc(O)c5c(=O)c34)[C@@H](c3cc(O)c(O)c4oc5cc(O)cc(O)c5c(=O)c34)[C@@H]2C(C)(C)C1
19.5 µM

Please give the measured TGI for this compound: CCOC(=O)c1cc(C)nc2c1c(=O)n(-c1ccccc1)c(=O)n2CCCCN1CCN(c2ncccn2)CC1
> 100 µM

Please give the measured TGI for this compound: COc1ccc(-c2c(-c3ccc(C#N)c(F)c3)nc(N3CCC(N)CC3)n(C)c2=O)cc1F
46.2 µM

Please give the measured TGI for this compound: CN(CCCCCl)P(=O)(OCc1ccc([N+](=O)[O-])o1)OCC1OC(n2cc([N+](=O)[O-])c(=O)[nH]c2=O)CC1O (centres undefined)
> 100 µM

Please give the measured TGI for this compound: CC(NNC(=O)c1ccncc1)c1cccc(C(F)(F)F)c1 (centres undefined)
> 100 µM

Please give the measured TGI for this compound: COc1ccc(-c2[nH]ncc2Nc2cc(OC)c(OC)c(OC)c2)cc1
63.7 µM

Please give the measured TGI for this compound: C=C(C)C(=O)Nc1ccc(-c2c(-c3ccc(Oc4nccc(C)n4)c(F)c3)c3c(N)ncnc3n2C)cc1
> 100 µM

Please give the measured TGI for this compound: CN(C)CCCn1c(Cn2nc3ccccc3n2)nc2cc(C(F)(F)F)ccc21
45.6 µM

Please give the measured TGI for this compound: COC(=O)c1c2c(cc3c1CC1(Cc4ccccc4C1)C3)CCC2
40.2 µM
